# Test system: HCT-116
# test: Antiproliferative activity against human HCT-116 cells assessed as reduction in cell viability incubated for 72 hrs by SRB assay
# Type: functional, cell-based
# experimentalContext: HCT-116, 72 h
pIC50: −log10 of the molar value.

itemSmiles: COc1ncc(-c2ccc3ncnc(Nc4cnn(CCCO)c4)c3c2)cc1NS(C)(=O)=O
valueModifier: =
pIC50: 5.85
--
itemSmiles: COc1ncc(-c2ccc3ncnc(Nc4ccc(OCCO)nc4)c3c2)cc1NS(C)(=O)=O
valueModifier: =
pIC50: 5.27
--
itemSmiles: CCCCS(=O)(=O)Nc1cc(-c2ccc3ncnc(Nc4ccc(OCCO)nc4)c3c2)cnc1OC
valueModifier: <
pIC50: 4.70
--
itemSmiles: COc1ncc(-c2ccc3ncnc(Nc4ccc(OCCO)cc4)c3c2)cc1NS(=O)(=O)c1ccc(F)cc1F
valueModifier: =
pIC50: 5.97
--
itemSmiles: COc1ncc(-c2ccc3ncnc(Nc4cnn(CCO)c4)c3c2)cc1NS(C)(=O)=O
valueModifier: =
pIC50: 5.83
--
itemSmiles: COc1cc(Nc2ncnc3ccc(-c4cnc(OC)c(NS(=O)(=O)c5ccc(F)cc5F)c4)cc23)ccc1OCCO
valueModifier: =
pIC50: 5.24
